# MEASURED_TARGET: human T-bet (Homo sapiens)
# Construct: expressed in transfected cells; host or cells: engineered HEK cells (HEKT-bet)
# Sequence (Q9UL17 1-535): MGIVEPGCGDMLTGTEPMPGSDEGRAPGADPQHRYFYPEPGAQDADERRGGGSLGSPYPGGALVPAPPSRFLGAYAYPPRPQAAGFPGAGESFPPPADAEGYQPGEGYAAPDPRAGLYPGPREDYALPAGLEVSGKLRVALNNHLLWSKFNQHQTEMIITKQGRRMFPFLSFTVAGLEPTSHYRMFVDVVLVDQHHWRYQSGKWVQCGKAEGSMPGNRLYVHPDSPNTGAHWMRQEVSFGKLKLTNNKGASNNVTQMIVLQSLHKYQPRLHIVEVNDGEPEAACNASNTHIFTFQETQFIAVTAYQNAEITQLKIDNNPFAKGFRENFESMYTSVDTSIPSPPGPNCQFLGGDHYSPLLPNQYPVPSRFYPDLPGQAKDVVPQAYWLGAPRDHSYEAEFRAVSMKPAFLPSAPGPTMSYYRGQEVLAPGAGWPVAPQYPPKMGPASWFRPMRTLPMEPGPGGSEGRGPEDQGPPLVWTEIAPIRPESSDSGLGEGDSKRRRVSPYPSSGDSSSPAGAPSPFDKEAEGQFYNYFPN
# PROCEDURE_DETAILS: HEKT-bet-luc assay (T-bet dependent luciferase reporter in engineered HEK cells)
# Type: cell-based
# MEASUREMENT_PARAMETERS: Table 4; HEKT-bet cells, compound 24 hours; IC50 normalized to reference ER-213038; read-out: IC50
With a cut-off of 0.3 µM, any IC50 strictly below it is called yes (1); any IC50 meeting it or above is called no (0).

Task item: hey, is IC50 for COCCN1C(=O)N(Cc2cc(OC)ccc2OC)C(=O)C12CCN(Cc1cc(OC)cc(OC)c1)CC2 lower than 0.3 µM or not?
Reply: no (0)

Task item: hey, is IC50 for CCN1C(=O)N(Cc2ccc3ccccc3c2)C(=O)C12CCN(Cc1cccc(C)c1)CC2 lower than 0.3 µM or not?
Reply: no (0)

Task item: hey, is IC50 for CCN1C(=O)N(Cc2ccc3ccccc3c2)C(=O)C12CCN(Cc1cccc(OC)c1)CC2 lower than 0.3 µM or not?
Reply: no (0)

Task item: hey, is IC50 for COCCN1C(=O)N(Cc2cccc(OC)c2)C(=O)C12CCN(Cc1cccc(N3CCCCC3)c1)CC2 lower than 0.3 µM or not?
Reply: no (0)

Task item: hey, is IC50 for CNc1cccc(CN2CCC3(CC2)C(=O)N(Cc2cccc(OC)c2)C(=O)N3CCOC)c1 lower than 0.3 µM or not?
Reply: no (0)

Task item: hey, is IC50 for COCCN1C(=O)N(C/C=C/c2ccccc2)C(=O)C12CCN(Cc1cccc(OC)c1)CC2 lower than 0.3 µM or not?
Reply: yes (1)

====

# MEASURED_TARGET: human T-bet (Homo sapiens, UniProt Q9UL17)
# Construct: expressed in transfected cells; host or cells: engineered HEK cells (HEKT-bet)
# PROCEDURE_DETAILS: HEKT-bet-luc assay (T-bet dependent luciferase reporter in engineered HEK cells)
# Type: cell-based
# MEASUREMENT_PARAMETERS: Table 4; HEKT-bet cells, compound 24 hours; IC50 normalized to reference ER-213038; read-out: IC50
READOUT_KIND: IC50 (nM)
Give the quantity in nM, number only.

# compound CCN1C(=O)N(CCc2cc(OC)cc(OC)c2)C(=O)C12CCN(Cc1cc(OC)cc(OC)c1)CC2 ; its IC50 = 561

# compound O=C1N(C/C=C/c2ccccc2)C(=O)C2(CCN(Cc3cccc4ccccc34)CC2)N1Cc1ccccn1 ; its IC50 = 420

# compound COCCN1C(=O)N(Cc2cccc(OC)c2)C(=O)C12CCN(Cc1c(C)c(C)c(C)c(C)c1C)CC2 ; its IC50 = 182

# compound COc1cc(CN2CCC3(CC2)C(=O)N(Cc2cc(OC)cc(OC)c2)C(=O)N3C)cc(OC)c1 ; its IC50 = 134

# compound COCCN1C(=O)N(C/C=C/c2ccccc2C)C(=O)C12CCN(Cc1ccccc1)CC2 ; its IC50 = 373

# compound COCCN1C(=O)N(Cc2cc(OC)cc(OC)c2)C(=O)C12CCN(Cc1cccc(OC)c1)CC2 ; its IC50 = 414

# compound COc1cccc(CN2C(=O)N(Cc3cccnc3)C3(CCN(Cc4cccc5ccccc45)CC3)C2=O)c1 ; its IC50 = 196

Reference for the values: patent US7666875B2
